# Test system: HCC-LM3
# Assay text: Inhibition test on cell proliferation (MTT), HCC-LM3
# Format: cell-based, human
# Run parameters: Homo sapiens, HCCLM3, 72 h, 72 hours of drug treatment, MTT; read-out: IC50 (nM) HCC-LM3
Listed next: entries and their corresponding IC50.

| Molecule | IC50 (nM) |
| --- | --- |
| CC(C)(C)c1[nH]cnc1/C=c1\[nH]c(=O)/c(=C/c2ccccc2)[nH]c1=O [Plinabulin, reference compound] | 8.31 |
| O=c1[nH]/c(=C\c2ncn(CCCN3CCOCC3)c2C2CC2)c(=O)[nH]/c1=C\c1cccc(F)c1 | 14.9 |
| CCOCC1CN(CCCn2cnc(/C=c3\[nH]c(=O)/c(=C/c4cccc(F)c4)[nH]c3=O)c2C(C)C)CCO1 (stereo not shown) | 16.7 |
| CC(C)c1c(/C=c2\[nH]c(=O)/c(=C/c3cccc(F)c3)[nH]c2=O)ncn1CCCN1CCOCC1 | 5.13 |
